Measured values drawn from patent US9204653B2 for this set.

test system: Mycosphaerella graminicola; Anamorph: Septoria tritici; Bayer Code SEPTTR; experiment: Leaf blotch of wheat, foliar fungicide treatment, one day protectant (1DP) or three day curative (3DC); format: in vivo, Septoria tritici on wheat plants (variety Yuma); details: Zymoseptoria tritici, 72 h, three day curative, 25 ppm, rating of percent disease control, read-out: SEPTTR 3DC 25 ppm
Reported pest or weed control at 25 ppm values for the following molecules.
readout_name: pest or weed control at 25 ppm

molecule: C=CC(C)Oc1ncc(F)c(N)n1 (stereo not shown)
obs_value: 0 to 25%

molecule: CC(Oc1ncc(F)c(N)n1)c1ccc(Cl)c(Cl)c1Cl (stereo not shown)
obs_value: 0 to 25%

molecule: COc1ccc(Oc2ncc(F)c(NC(C)=O)n2)cc1
obs_value: 0 to 25%

molecule: COc1cc(COc2ncc(F)c(N)n2)ccc1F
obs_value: 76 to 100%

molecule: COc1ccc(COc2ncc(F)c(N)n2)cc1F
obs_value: 76 to 100%

molecule: CCCNC(=S)Nc1nc(OCc2ccccc2)ncc1F
obs_value: 26 to 50%

molecule: CN(C)/C=N/c1nc(OC(=O)OCC(Cl)(Cl)Cl)ncc1F
obs_value: 76 to 100%

molecule: Nc1nc(OCc2ccccc2Br)ncc1F
obs_value: 76 to 100%

molecule: COCCOC(=O)Nc1nc(OCc2cccc(C#N)c2)ncc1F
obs_value: 76 to 100%

molecule: Nc1nc(OS(=O)(=O)c2ccc(Cl)cc2)ncc1F
obs_value: 76 to 100%

====

test system: Mycosphaerella graminicola; Anamorph: Septoria tritici; Bayer Code SEPTTR; test: Leaf blotch of wheat, foliar fungicide treatment, one day protectant (1DP) or three day curative (3DC); type: in vivo, Septoria tritici on wheat plants (variety Yuma); settings: Zymoseptoria tritici, 24 h, one day protectant (1DP), 25 ppm, rating of percent disease control, read-out: SETTTR 1DP 25 ppm
Reported pest or weed control at 25 ppm by item:
readout_name: pest or weed control at 25 ppm

molecule: N#Cc1cccc(COc2ncc(F)c(NC(=O)NCc3ccccc3)n2)c1
readout_name: pest or weed control at 25 ppm
obs_value: 0 to 25%
--
molecule: OCNc1nc(OCc2cccc(F)c2)ncc1F
readout_name: pest or weed control at 25 ppm
obs_value: 76 to 100%
--
molecule: COc1ccc(COc2ncc(F)c(N)n2)cc1
readout_name: pest or weed control at 25 ppm
obs_value: 76 to 100%
--
molecule: Nc1cccc(COc2ncc(F)c(N)n2)c1
readout_name: pest or weed control at 25 ppm
obs_value: 76 to 100%
--
molecule: CCCCCC(CC)Oc1ncc(F)c(N)n1 (stereo not shown)
readout_name: pest or weed control at 25 ppm
obs_value: 0 to 25%
--
molecule: Cc1nc(COc2ncc(F)c(N)n2)cs1
readout_name: pest or weed control at 25 ppm
obs_value: 76 to 100%
--
molecule: COc1ccc(COc2ncc(F)c(/N=C/N3CCOCC3)n2)cc1F
readout_name: pest or weed control at 25 ppm
obs_value: 76 to 100%
--
molecule: COCCOC(=O)Nc1nc(OCc2cccc(F)c2)ncc1F
readout_name: pest or weed control at 25 ppm
obs_value: 51 to 75%
--
molecule: COCCOC(=O)Oc1ncc(F)c(/N=C/N(C)C)n1
readout_name: pest or weed control at 25 ppm
obs_value: 76 to 100%
--
molecule: CCCNC(=O)Nc1nc(OCc2ccc(F)cc2)ncc1F
readout_name: pest or weed control at 25 ppm
obs_value: 51 to 75%

====

tested on: Mycosphaerella graminicola; Anamorph: Septoria tritici; Bayer Code SEPTTR; assay: Leaf blotch of wheat, foliar fungicide treatment, one day protectant (1DP) or three day curative (3DC); format: in vivo, Septoria tritici on wheat plants (variety Yuma); conditions: Zymoseptoria tritici, 72 h, three day curative (3DC), 25 ppm, percent control rating, read-out: SEPTTR 3DC 25 ppm
Catalogue of pest or weed control at 25 ppm readings, one per entry.

compound: Fc1ccc(COc2ncc(F)c(NNc3ccccc3F)n2)cc1 [Compound 1042]
target_entity: Mycosphaerella graminicola; Anamorph: Septoria tritici; Bayer Code SEPTTR
pest or weed control at 25 ppm: 0 to 25%
//
compound: C=CCOc1ncc(F)c(N/N=C(\C)c2ccc(F)cc2)n1 [Compound 1060]
target_entity: Mycosphaerella graminicola; Anamorph: Septoria tritici; Bayer Code SEPTTR
pest or weed control at 25 ppm: 0 to 25%
//
compound: Cc1ccc(COc2ncc(F)c(NNc3ccc(Br)cc3)n2)cc1 [Compound 1030]
target_entity: Mycosphaerella graminicola; Anamorph: Septoria tritici; Bayer Code SEPTTR
pest or weed control at 25 ppm: 0 to 25%
//
compound: CN(Cc1ccccc1)c1nc(O)ncc1F [Compound 957]
target_entity: Mycosphaerella graminicola; Anamorph: Septoria tritici; Bayer Code SEPTTR
pest or weed control at 25 ppm: 26 to 50%
//
compound: COc1cccc(COc2ncc(F)c(NS(C)(=O)=O)n2)c1 [Compound 1011]
target_entity: Mycosphaerella graminicola; Anamorph: Septoria tritici; Bayer Code SEPTTR
pest or weed control at 25 ppm: 0 to 25%
//
compound: Oc1ncc(F)c(N/N=C/c2ccco2)n1 [Compound 1112]
target_entity: Mycosphaerella graminicola; Anamorph: Septoria tritici; Bayer Code SEPTTR
pest or weed control at 25 ppm: 0 to 25%
//
compound: CC(C)(C)C(=O)OCOc1ncc(F)c(N)n1 [Compound 1119]
target_entity: Mycosphaerella graminicola; Anamorph: Septoria tritici; Bayer Code SEPTTR
pest or weed control at 25 ppm: 76 to 100%
//
compound: CN(Cc1ccc(Cl)cc1)c1nc(O)ncc1F [Compound 1068]
target_entity: Mycosphaerella graminicola; Anamorph: Septoria tritici; Bayer Code SEPTTR
pest or weed control at 25 ppm: 0 to 25%
//
compound: CC(C)S(=O)(=O)Nc1nc(OCc2ccccc2)ncc1F [Compound 1009]
target_entity: Mycosphaerella graminicola; Anamorph: Septoria tritici; Bayer Code SEPTTR
pest or weed control at 25 ppm: 0 to 25%
//
compound: O=S(=O)(Nc1nc(O)ncc1F)C1CC1 [Compound 1104]
target_entity: Mycosphaerella graminicola; Anamorph: Septoria tritici; Bayer Code SEPTTR
pest or weed control at 25 ppm: 0 to 25%

====

system: Venturia inaequalis; Bayer Code VENTIN; assay: Apple scab; type: in vivo; conditions: 24 h, % disease control rating, one day protectant, 75 ppm, read-out: VENTIN 1 DP 75 ppm

compound: CONc1nc(OCc2ccc(F)cc2)ncc1F
pest or weed control at 75 ppm: 51 to 75%

compound: Fc1ccc(COc2ccc(F)c(NC(=S)Nc3ccccc3F)c2)cc1
pest or weed control at 75 ppm: 51 to 75%

compound: O=[N+]([O-])c1ccccc1SNc1nc(OCc2cc(C(F)(F)F)cc(C(F)(F)F)c2)ncc1F
pest or weed control at 75 ppm: 76 to 100%

compound: Nc1nc(OCc2cccc(F)c2)ncc1F
pest or weed control at 75 ppm: 76 to 100%

compound: O=C(Nc1nc(OCc2cccc(F)c2)ncc1F)OCc1ccc([N+](=O)[O-])cc1
pest or weed control at 75 ppm: 0 to 25%

compound: CS(=O)(=O)Oc1ncc(F)c(N)n1
pest or weed control at 75 ppm: 76 to 100%

compound: CC(Oc1ncc(F)c(NCOCc2ccccc2)n1)c1ccc(F)cc1 (centres unmarked)
pest or weed control at 75 ppm: 26 to 50%

compound: O=C(Nc1nc(OCc2ccc(F)cc2)ncc1F)c1cccc2nnsc12
pest or weed control at 75 ppm: 51 to 75%

compound: Cc1cnc(CNc2nc(OCc3ccco3)ncc2F)cn1
pest or weed control at 75 ppm: 51 to 75%

compound: CC(Oc1ncc(F)c(N)n1)c1ccc(F)cc1 (centres unmarked)
pest or weed control at 75 ppm: 76 to 100%

compound: CN(C)/C=N/c1nc(OCc2cccc(C#N)c2)ncc1F
pest or weed control at 75 ppm: 51 to 75%

compound: CN(Cc1ccccc1F)c1nc(OCc2ccc(F)cc2)ncc1F
pest or weed control at 75 ppm: 51 to 75%

compound: CC(Oc1ncc(F)c(N)n1)c1cccc2ccccc12 (centres unmarked)
pest or weed control at 75 ppm: 76 to 100%

compound: O=C(OCNc1nc(OCc2ccc(F)cc2)ncc1F)C1CC1
pest or weed control at 75 ppm: 51 to 75%

compound: Cc1cc(C)c(COc2ncc(F)c(N)n2)c(C)c1
pest or weed control at 75 ppm: 76 to 100%

compound: CN(C)/C=N/c1nc(OCc2ccn(C)n2)ncc1F
pest or weed control at 75 ppm: 51 to 75%

compound: CC(Oc1ncc(F)c(N)n1)c1ccc(C(F)(F)F)nc1 (centres unmarked)
pest or weed control at 75 ppm: 26 to 50%

compound: CN(C)/C=N/c1nc(OC(=O)c2ccc(Cl)cc2Cl)ncc1F
pest or weed control at 75 ppm: 76 to 100%

compound: C=CCc1cc(COc2ncc(F)c(N)n2)cc(OC)c1OC
pest or weed control at 75 ppm: 76 to 100%

compound: CCCCCCOc1ncc(F)c(/N=C/N(C)C)n1
pest or weed control at 75 ppm: 76 to 100%
